Target: DLG1_1, Q12959
Test: holdup assay
Set-up: key: below the threshold = too weak to quantify, mostly under pKd 3.1 to 4
Settings: plain residues with an end cap or a label only (N-terminal biotin on a linker: ado-ado)
test readout: pKd

Below, 2 binders whose answers are already recorded.
binder	pKd
GVHSNDHSVV [LPAR1, Q92633]	3.74
ATKDKKITTV [EXOC4, Q96A65]	5.05

Here is another binder to look at.
For the binder shown here, KIEDVEITLV [FCHSD2, O94868] , give the reported pKd.
3.79

Recorded values, source paper PMC9482650.
